B1: HDV Ribozyme (parent)
chain: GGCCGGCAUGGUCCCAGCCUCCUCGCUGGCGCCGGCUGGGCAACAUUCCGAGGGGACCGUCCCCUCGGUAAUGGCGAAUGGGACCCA

variants of: B1; test: self-cleavage, relative activity (ratio to wild type); higher = more cleavage; co-transcriptional
Hi all, reminder that labels come from self-cleavage, split as low: < 0.1; mid: ≥ 0.1 and < 0.4; high: ≥ 0.4

chain	assigned_category
GGCCGGAAUGGUCCCAGCCUCCUCGCUGGCGCCGGCUGGGCAACAUUCCGAGGGGACCGUCCCCUCGGUAAUGGCGAAUGGCACCCA [C7A G82C]	low
GGCCGGCAUGGGCCCAGCCUCCUCGCUGGCGCCGGCUGGGCAACAUUCCGAGGGGACCGUCCCCGCGGUAAUGGCGAAUGGGACCCA [U12G U65G]	high
GGCCGGCAUGGUCCCAGCCUCCUCGCUGGCGCCGGAUGGGCAACAUUCCGAGGGGAACGUCCCCUCGGUAAUGGCGAAUGGGACCCA [C36A C57A]	mid

With those in mind, consider the next variant.
Exercise: Where would GGCCGGCAUGGUCCCAGCCUCCUCGCUGGCGCCGGCUGGGCAACAUUCCGAGAGGACCGUCCCCUCGGUAAUGGCGAACGGGACCCA [G53A U79C] land among the classes by reported self-cleavage?
Key: mid
